System: DeltatarO mutant
Experiment: S. aureus survival, RN4220 and DeltatarO strains – OD600, teichoic acid synthesis inhibitors, primary screen (AID 463173)
Conditions: S. aureus RN4220 wild type/DeltatarO growth, OD600, 18 h, active compounds read low, screened at 18.75 µg/mL (by protocol)
About 4,300 (8.3%) of roughly 52,000 compounds were called active. The entries come from a sample that favours actives as a whole.
Using survival as the sorting value, the categories are lower range (below 70%), middle range (70% to below 90%), upper range (90% or more)

Worked examples follow.
[[record]]
line_notation = "COc1ccc(Nc2c3c(nc4ccccc24)CCC3)cc1Cl"
target_of_assay = "DeltatarO mutant"
category_label = "lower range"

[[record]]
line_notation = "COc1ccc(OC)c(CCNC(=O)c2cc3c(=O)n(C)c4ccccc4c3n2C)c1"
target_of_assay = "DeltatarO mutant"
category_label = "lower range"

[[record]]
line_notation = "Cc1ccc(-c2nc3ccccn3c2Nc2ccc3c(c2)OCO3)cc1"
target_of_assay = "DeltatarO mutant"
category_label = "middle range"

[[record]]
line_notation = "COc1ccc(-n2c(SCC(=O)NCc3ccccc3)nc3c([nH]c4ccccc43)c2=O)cc1"
target_of_assay = "DeltatarO mutant"
category_label = "upper range"

[[record]]
line_notation = "CCc1ccc2occ(CC(=O)Nc3ccc(C)c(C)c3)c2c1"
target_of_assay = "DeltatarO mutant"
category_label = "upper range"


[Q] Dear colleague, I would appreciate it if you could identify the bin for COc1cc(OC)c(NC(=O)N2CCSc3ccccc32)cc1Cl and reply at your convenience.
[A] middle range

[Q] What about this compound? Cc1ccc(-n2nc3c(N4CCC(C(=O)NC5CCCCC5)CC4)nnc(C)c3c2C)cc1
[A] middle range

[Q] How about COc1ccc(C)cc1Nc1c2c(nc3ccccc13)CCC2 ?
[A] middle range

###

System: DeltatarO mutant
Assay: S. aureus survival, RN4220 and DeltatarO strains – OD600, teichoic acid synthesis inhibitors, primary screen (AID 463173)
Settings: S. aureus RN4220 wild type/DeltatarO growth, OD600, 18 h, active compounds read low, screened at 18.75 µg/mL (by protocol)
Screen size: about 52,000 compounds; about 4,300 (8.3%) were called active. The full list was thinned out, with actives kept by preference.
Friendly reminder: survival below 40% is Condition met, at or above is Condition not met.

Before answering, review these 5 worked examples.
[[record]]
line_notation = "O=C(CSc1nccn1Cc1ccccc1)NCc1ccccc1Cl"
category_label = "Condition not met"

[[record]]
line_notation = "O=C(NCCCN1CCN(c2ccc(F)cc2)CC1)c1cc2c(s1)-c1ccccc1OC2"
category_label = "Condition not met"

[[record]]
line_notation = "O=C(COCc1cc(-c2cccs2)on1)Nc1cccc(O)c1"
category_label = "Condition met"

[[record]]
line_notation = "O=c1c2cnn(-c3ccc(F)cc3)c2ncn1Cc1ccccc1Cl"
category_label = "Condition not met"

[[record]]
line_notation = "Cc1cc(NS(=O)(=O)c2ccc(NC(=O)COc3ccccc3Br)cc2)no1"
category_label = "Condition not met"


Now for a further compound.
[Q] Hello, is survival of the following compound strictly smaller than 40%? O=C(NCCCN1CCN(c2ccccc2F)CC1)c1cc2c(s1)-c1ccccc1OC2
[A] Condition met

###

Tested on: DeltatarO mutant
Assay: S. aureus survival, RN4220 and DeltatarO strains – OD600, teichoic acid synthesis inhibitors, primary screen (AID 463173)
Conditions: S. aureus RN4220 wild type/DeltatarO growth, OD600, 18 h, active compounds read low, screened at 18.75 µg/mL (by protocol)
Out of some 52,000 compounds screened, about 4,300 (8.3%) were called active. For the sample, actives were picked, then their nearest neighbours and some compounds at random.
Listed here are compounds together with their documented survival.
Lab book: enter the figure in %, no units written.

Some compounds with known survival results, for comparison:
[[record]]
compound = "CCc1cccc(C)c1Nc1c(-c2cccs2)nc2ncccn12"
output_unit = "%"
value_observed = 73

[[record]]
compound = "CCCCSc1nnc2c(n1)OC(c1ccc(C)s1)Nc1ccccc1-2 (centres undefined)"
output_unit = "%"
value_observed = 41

[[record]]
compound = "Cc1cccc(CS(=O)(=O)c2ncc(Cl)c(C(=O)Nc3nnc(C(C)C)s3)n2)c1"
output_unit = "%"
value_observed = 28

[[record]]
compound = "CCSc1nnc2c(n1)OC(c1ccc(C)s1)Nc1ccccc1-2 (centres undefined)"
output_unit = "%"
value_observed = 71

[[record]]
compound = "Cc1nc2nc(C)c(NS(=O)(=O)c3ccc(CC(C)C)cc3)c(=O)n2[nH]1"
output_unit = "%"
value_observed = 89


[Q] Give its survival value. Item: CCOCCCNC(=O)C(c1ccc(OC)cc1)N(Cc1cccs1)C(=O)c1ccc(NC(C)=O)cc1 (centres undefined)
[A] 53

[Q] Moving on to the next compound: CC(C)(C)NC(=S)Nc1ccc2nccnc2c1
[A] 65

[Q] Then CC(C)Sc1ncc(Cl)c(C(=O)Nc2nnc(C(C)C)s2)n1 ?
[A] 69

###

Test system: DeltatarO mutant
Test: S. aureus survival, RN4220 and DeltatarO strains – OD600, teichoic acid synthesis inhibitors, primary screen (AID 463173)
Details: S. aureus RN4220 wild type/DeltatarO growth, OD600, 18 h, active compounds read low, screened at 18.75 µg/mL (by protocol)
About 4,300 (8.3%) of roughly 52,000 compounds were called active. Only a selection was taken, and actives are over-represented in it overall.
QUANTITY MEASURED: survival (%)
Write it as a number; the unit % goes unstated.

Record excerpt, results attached:
[[record]]
compound = "Cc1cc2c(cc1S(=O)(=O)NCc1ccccc1Cl)OCCN2C"
value_observed = 106

[[record]]
compound = "COc1ccc(Cl)cc1NC(=O)CN1c2ccccc2S(=O)(=O)c2ccccc21"
value_observed = 75

[[record]]
compound = "CSc1ccc(CNC(=O)c2cc3c(=O)n(Cc4ccco4)ccc3nc2C)cc1"
value_observed = 94

[[record]]
compound = "O=C(NC1CC(=O)N(c2ccc(Cl)cc2)C1)c1ccc2c(c1)OCO2 (configuration not stated)"
value_observed = 78

[[record]]
compound = "Cn1cc(CN(C(=O)Nc2ccccc2)C2CCCCC2)c2ccccc21"
value_observed = -14


[Q] survival for CCc1ccc(NC(=O)N2CCOc3ccc(Cl)cc32)cc1 ?
[A] 65

[Q] Now the compound CCOc1ccc(NC(=O)c2c(NC(=O)c3ccncc3)sc3c2CCC(C(C)(C)C)C3)cc1 (configuration not stated)
[A] 113

[Q] Ok, now COc1ccc(N(Cc2nnc3n2CCCCC3)C(=O)Nc2ccc(Cl)cc2)cc1Cl
[A] 85

[Q] Also COCCN1C(=O)c2[nH]nc(-c3c(C)cc(C)cc3O)c2C1c1cccc(O)c1 (configuration not stated) , if possible.
[A] 57

[Q] Now consider CCOc1ccc(NC(=O)c2c(NC(=O)c3cccs3)sc3c2CCC(C(C)(C)C)C3)cc1 (configuration not stated) and answer again.
[A] 67

[Q] Next entry: CCC(CC)C(=O)Nc1cc(-c2ccccc2F)nn1-c1ccccc1
[A] 76

[Q] Similarly, Cc1nnc(NC(=O)CSc2nc3c([nH]c4ccccc43)c(=O)n2-c2ccc(Cl)cc2)s1 ?
[A] 73

###

Tested on: DeltatarO mutant
Assay: S. aureus survival, RN4220 and DeltatarO strains – OD600, teichoic acid synthesis inhibitors, primary screen (AID 463173)
Conditions: S. aureus RN4220 wild type/DeltatarO growth, OD600, 18 h, active compounds read low, screened at 18.75 µg/mL (by protocol)
In all, about 52,000 compounds went through this assay and about 4,300 (8.3%) were called active. Many of the other results were omitted from the sample, so actives are more common in it than they were.
Let's look at some compounds and their measured survival.

[[record]]
compound = "CCCCN1CC(c2nc3ccccc3n2CCCCOc2cc(C)cc(C)c2)CC1=O (configuration not stated)"
quantity_measured = "survival"
value_observed = "33% (active)"

[[record]]
compound = "Cc1ccc(C(C)C)c(OCC(=O)N2CCC(c3nc4ccccc4o3)CC2)c1"
quantity_measured = "survival"
value_observed = "80% (inactive)"

[[record]]
compound = "O=C(CCC1N=C2c3ccccc3N=C(SCc3ccc(F)cc3)N2C1=O)N1CCN(c2ccccc2)CC1 (configuration not stated)"
quantity_measured = "survival"
value_observed = "57% (inactive)"

[[record]]
compound = "COC(=O)c1c(NC(=O)/C(C#N)=C/c2ccccc2)sc2c1C(C(=O)OC)CC2 (configuration not stated)"
quantity_measured = "survival"
value_observed = "58% (inactive)"

[[record]]
compound = "CCOC(=O)c1c(Nc2ccc(O)cc2)nnc(-c2ccccc2)c1-c1ccccc1"
quantity_measured = "survival"
value_observed = "95% (inactive)"


[Q] // survival lookup, key: O=C(Cn1ncc2c3ccccc3n(Cc3cccc(Cl)c3)c2c1=O)Nc1ccc(F)cc1F
[A] 103% (inactive)

[Q] What do you have for Cc1cccc(NC(=O)NCCn2c(=O)oc3ccc(C)cc32)c1 ?
[A] 71% (inactive)

[Q] Param item: COc1ccc(-c2cnnn2-c2ccc(NC(=O)c3ccc(S(=O)(=O)N(C)C)cc3)cc2)cc1
[A] 81% (inactive)

[Q] Next record, please: CCOC(=O)c1c(C)oc2ncnc(Nc3ccc(CC)cc3)c12
[A] 85% (inactive)
